# Test system: Klebsiella pneumoniae
# assay.name: Antimicrobial activity against Klebsiella pneumoniae at 10 to 60 ug/disk by disk diffusion method
# Type: functional
reported.endpoint: diameter of the inhibition zone (DIZ)
Answers without a unit are incomplete; give the number and then its unit.

Here are 5 compounds together with their reported answers.
* O=C(c1cccs1)C1C(C(=O)c2cccs2)C(c2ccccc2)C1c1ccccc1 (configuration not stated) | 5 mm
* O=C(c1ccco1)C1C(C(=O)c2ccco2)C(c2ccccc2)C1c1ccccc1 (configuration not stated) | 5 mm
* OC(/C=C/c1ccco1)(c1ccccc1)C(O)(/C=C/c1ccco1)c1ccccc1 (configuration not stated) | 5 mm
* OC(/C=C/c1ccc[nH]1)(c1ccccc1)C(O)(/C=C/c1ccc[nH]1)c1ccccc1 (configuration not stated) | 5 mm
* O=C(c1ccc[nH]1)C1C(C(=O)c2ccc[nH]2)C(c2ccccc2)C1c1ccccc1 (configuration not stated) | 5 mm

# input // fetch Klebsiella pneumoniae diameter of the inhibition zone (DIZ) for `O=C(/C=C/c1ccccc1)c1cccs1`
# output 10 mm

# input // fetch Klebsiella pneumoniae diameter of the inhibition zone (DIZ) for OC(/C=C/c1cccs1)(c1ccccc1)C(O)(/C=C/c1cccs1)c1ccccc1 (configuration not stated)
# output 7 mm

====

# System: Micrococcus luteus
# assay.name: Antimicrobial activity against Micrococcus luteus at 10 to 60 ug/disc by disk diffusion method
# Format: functional
reported.endpoint: diameter of the inhibition zone (DIZ) (mm)
Only the number, expressed in mm, is required.

Here are 5 compounds together with their reported answers.
• OC(/C=C/c1ccco1)(c1ccccc1)C(O)(/C=C/c1ccco1)c1ccccc1 (stereo unspecified) = 6
• OC(/C=C/c1ccc[nH]1)(c1ccccc1)C(O)(/C=C/c1ccc[nH]1)c1ccccc1 (stereo unspecified) = 5
• O=C(c1ccco1)C1C(C(=O)c2ccco2)C(c2ccccc2)C1c1ccccc1 (stereo unspecified) = 7
• O=C(c1ccc[nH]1)C1C(C(=O)c2ccc[nH]2)C(c2ccccc2)C1c1ccccc1 (stereo unspecified) = 5
• OC(/C=C/c1cccs1)(c1ccccc1)C(O)(/C=C/c1cccs1)c1ccccc1 (stereo unspecified) = 8

# context switch: different compound, same diameter of the inhibition zone (DIZ)
# input Look up diameter of the inhibition zone (DIZ): O=C(c1cccs1)C1C(C(=O)c2cccs2)C(c2ccccc2)C1c1ccccc1 (stereo unspecified)
# output 7

====

Each entry below carries its reported diameter of the inhibition zone (DIZ).
# System: Fusarium verticillioides
# assay.name: Antimicrobial activity against Fusarium verticillioides at 10 to 60 ug/disk by disk diffusion method
# Type: functional
Answers without a unit are incomplete; give the number and then its unit.

• O=C(c1cccs1)C1C(C(=O)c2cccs2)C(c2ccccc2)C1c1ccccc1 (stereo unspecified) = 5 mm
• OC(/C=C/c1cccs1)(c1ccccc1)C(O)(/C=C/c1cccs1)c1ccccc1 (stereo unspecified) = 5 mm
• O=C(c1ccco1)C1C(C(=O)c2ccco2)C(c2ccccc2)C1c1ccccc1 (stereo unspecified) = 6 mm
• O=C(c1ccc[nH]1)C1C(C(=O)c2ccc[nH]2)C(c2ccccc2)C1c1ccccc1 (stereo unspecified) = 5 mm
• OC(/C=C/c1ccc[nH]1)(c1ccccc1)C(O)(/C=C/c1ccc[nH]1)c1ccccc1 (stereo unspecified) = 5 mm

# context switch: different compound, same diameter of the inhibition zone (DIZ)
# input Look up diameter of the inhibition zone (DIZ): OC(/C=C/c1ccco1)(c1ccccc1)C(O)(/C=C/c1ccco1)c1ccccc1 (stereo unspecified)
# output 7 mm

====

# Tested on: Proteus vulgaris
# assay.name: Antimicrobial activity against Proteus vulgaris at 10 ug/disk by disk diffusion method
# Format: functional
# test.settings: read-out: DIZ
Each entry below carries its reported zone of inhibition at 10 µg/disc.
Only the number, expressed in mm, is required.

Here are 2 compounds together with their reported answers.
• O=C(/C=C/c1ccc[nH]1)c1ccccc1 = 5
• O=C(/C=C/c1ccco1)c1ccccc1 = 9

# input Look up zone of inhibition at 10 µg/disc: `O=C(/C=C/c1ccccc1)c1ccco1`
# output 8

# input Look up zone of inhibition at 10 µg/disc: `O=C(/C=C/c1ccccc1)c1ccc[nH]1`
# output 5

====

# Tested on: Escherichia coli
# assay.name: Antimicrobial activity against Escherichia coli at 10 ug/disk by disk diffusion method
# Assay type: functional
# test.settings: read-out: DIZ
Each entry below carries its reported zone of inhibition at 10 µg/disc.
Only the number, expressed in mm, is required.

Here are 3 compounds together with their reported answers.
• O=C(/C=C/c1ccco1)c1ccccc1 = 5
• O=C(/C=C/c1ccccc1)c1ccco1 = 5
• O=C(/C=C/c1ccc[nH]1)c1ccccc1 = 6

# context switch: different compound, same zone of inhibition at 10 µg/disc
# input Look up zone of inhibition at 10 µg/disc: `O=C(/C=C/c1ccccc1)c1cccs1`
# output 5

====

# Tested on: Priestia megaterium
# assay.name: Antimicrobial activity against Bacillus megaterium at 10 ug/disk by disk diffusion method
# Format: functional
# test.settings: read-out: DIZ
reported.endpoint: zone of inhibition at 10 µg/disc

• O=C(/C=C/c1ccccc1)c1cccs1 = 10 mm

# input Look up zone of inhibition at 10 µg/disc: `O=C(/C=C/c1ccccc1)c1ccc[nH]1`
# output 13 mm

# input Look up zone of inhibition at 10 µg/disc: `O=C(/C=C/c1ccccc1)c1ccco1`
# output 11 mm

# input Look up zone of inhibition at 10 µg/disc: `O=C(/C=C/c1ccc[nH]1)c1ccccc1`
# output 12 mm

# input Look up zone of inhibition at 10 µg/disc: `O=C(/C=C/c1ccco1)c1ccccc1`
# output 9 mm
